Tested on: coronary blood flow
Assay: Effect on coronary blood flow
Format: in vivo, Adult mongrel dogs
Conditions: half-life measured as the duration of effects on coronary blood flow
Counter-ions that a name gives are not always drawn.
assay.readout: T 1/2
Report field: quantity (unit follows the number).

CCN(CC)Cc1cnc2n1C(c1ccccc1C(F)(F)F)C(C(=O)OC)=C(C)N2 (stereo not shown)	1.0 min
CCOC(=O)C1=C(C)Nc2ncc(CN(CC)CC)n2C1c1cccc([N+](=O)[O-])c1 (stereo not shown) [Compound B, hydrochloride]	1.5 min
CCCN(CCC)Cc1cnc2n1C(c1cccc([N+](=O)[O-])c1)C(C(=O)OC)=C(C)N2 (stereo not shown)	1.0 min
CCN(CC)Cc1cnc2n1C(c1cccc([N+](=O)[O-])c1)C(C(=O)OCCOC)=C(C)N2 (stereo not shown)	1.7 min
CCOC(=O)C1=C(C)Nc2ncc(CN(C)Cc3ccccc3)n2C1c1cccc([N+](=O)[O-])c1.Cl.Cl.O (stereo not shown)	1.5 min
COC(=O)C1=C(C)Nc2ncc(CN(C(C)C)C(C)C)n2C1c1cccc([N+](=O)[O-])c1 (stereo not shown)	1.5 min

Now take the following molecule into account.
Item: CCN(CC)Cc1cnc2n1C(c1cccc([N+](=O)[O-])c1)C(C(=O)OC)=C(C)N2 (stereo not shown) [Compound A, hydrochloride] | System: coronary blood flow | T 1/2: 1.0 min
